System: SH-SY5Y cells
Test Protocol: AK (adenylate kinase) release ToxiLight cytotoxicity assay; further: reference of the scale not given here
Details: PKIS2 primary screening
Quantity Measured: AK
Numbers only.

Below, 5 compounds whose answers are already recorded.
Compound	Quantity Measured	Quantitative Result
C[C@@H](Oc1cc(-n2cnc3cc(-c4ccncc4)ccc32)sc1C(N)=O)c1ccccc1Cl [UNC10225262A]	AK	125.08
C=CC(=O)Nc1cc2c(Nc3ccc(F)c(Cl)c3)ncnc2cc1OCCCN1CCOCC1 [UNC10126563B]	AK	149.52
CCS(=O)(=O)c1ccc(OC)c(Nc2nccc(-c3c(-c4cccc(NC(=O)c5c(F)cccc5F)c4)nn4ncccc34)n2)c1 [UNC10225342A]	AK	86.17
COc1cc2ncn(-c3cc(OCC4CCCCC4)c(C(N)=O)s3)c2cc1OC [UNC10225496A]	AK	73.76
Cn1cc(-c2ccc3c(c2)CCN3C(=O)Cc2cc(F)cc(C(F)(F)F)c2)c2c(N)ncnc21 [UNC10225478A]	AK	72.42

Dear reader, for each entry below, please note its AK.
1. CS(=O)(=O)CCNCc1nc(-c2ccc3ncnc(Nc4ccc(OCc5ccccc5)c(Cl)c4)c3c2)cs1.Cl [UNC10225279B]
2. Cc1ccc(NC(=O)Nc2cccc(Cl)c2)cc1-c1ccc(C(=O)Nc2ccncc2)cc1 [UNC10225019A]
3. Oc1ccc2ncnc(Nc3ccc(OCc4ccccc4)cc3)c2c1 [UNC10225360A]
4. Cc1occc1-c1ncc(OC[C@@H](N)Cc2c[nH]c3ccccc23)cc1-c1ccc2[nH]nc(C)c2c1.O=C(O)C(F)(F)F [UNC10243880A]

Outgoing:
1. 96.76
2. 95.29
3. 98.47
4. 148.86

Dear reader, for each entry below, please note its AK.
1. CC(C)c1nc(-c2cccc(NS(=O)(=O)c3ccccc3)c2)c(-c2ccnc(Nc3ccc4c(c3)CN(C)CC4)n2)s1 [UNC10225068A]
2. COc1ccc(CNC(=O)NC2CCN(c3ccnc(Nc4ccc(F)cc4)n3)C2)cc1 (centres unmarked)
3. O=c1cc(N2CCOCC2)nc2n(Cc3cccc(Cl)c3)ccn12 [UNC10225131A]

Outgoing:
1. 114.97
2. 89.40
3. 96.90

Dear reader, for each entry below, please note its AK.
1. FC(F)(F)c1ccc(-c2nn3ncccc3c2-c2ccnc(Nc3cccc(C(F)(F)F)c3)n2)cc1 [UNC10225138A]
2. Cc1cc(N2Cc3ccccc3C2)nc(Nc2ccc(S(=O)(=O)N3CCOCC3)cc2)n1
3. O=c1cc(N2CCOCC2)nc2n(Cc3cccc(F)c3)ccn12 [UNC10225332A]
4. Fc1ccc(-c2nc3n(c2-c2ccncc2)CCS3)cc1 [UNC10225163A]

Outgoing:
[86.01, 117.66, 128.93, 64.81]

Dear reader, for each entry below, please note its AK.
1. Nc1ncnc2c1ncn2-c1cccc2ccccc12 [UNC10225410A]
2. Cc1ccc(C)c(NC(=O)NCCNc2ccnc(Nc3ccc(F)cc3)n2)c1
3. Cc1ccc(C)c(NC(=O)Nc2ccc(C)c(-c3ccc(C(=O)Nc4ccncc4)cc3)c2)c1 [UNC10225228A]
4. Cc1cn2c(=O)cc(N3CCOCC3)nc2n1Cc1cccc(Cl)c1Cl [UNC10225415A]

Outgoing:
1: 106.56; 2: 103.06; 3: 74.48; 4: 43.75

Dear reader, for each entry below, please note its AK.
1. Nc1nc(-c2ccc3c(N)n[nH]c3c2)cc(N2CCC[C@@H](C(=O)Nc3ccccc3)C2)n1
2. CN(C)S(=O)(=O)c1cc(-c2ccc3nccc(-c4cccc(S(N)(=O)=O)c4)c3c2)cnc1N [UNC10225457A]
3. COc1cc2ncnc(Nc3ccc4nc(-c5ccccc5)[nH]c4c3)c2cc1OC.Cl [UNC10225504A]
4. Clc1ccc(-c2nn3ncccc3c2-c2ccnc(Nc3ccc4c(c3)OCCO4)n2)cc1 [UNC10225358A]
5. COc1cc2ncn(-c3cc(OCc4ccncc4)c(C(N)=O)s3)c2cc1OC [UNC10225069A]
6. CN(c1ccc(NC(=O)Nc2cc(C(F)(F)F)ccc2F)cc1)c1ccnc(Nc2ccc(S(N)(=O)=O)cc2)n1
7. c1ccc(-c2n[nH]cc2-c2ccnc3ccccc23)nc1 [UNC10225289A]

Outgoing:
1: 96.03; 2: 74.17; 3: 94.98; 4: 157.53; 5: 99.11; 6: 111.00; 7: 102.26

Dear reader, for each entry below, please note its AK.
1. C[C@@H](Oc1cc(-n2cnc3cc(-c4cnn(C)c4)ccc32)sc1C(N)=O)c1ccccc1Cl [UNC10225416A]
2. CN1CCC(n2cnc(-c3ccc(F)cc3)c2-c2ccnc(NC3CCNCC3)n2)CC1 [UNC10225443A]

Outgoing:
104.83
75.10

Dear reader, for each entry below, please note its AK.
1. Cl.Nc1ncnc2occ(-c3ccc(NC(=O)Nc4cc(C(F)(F)F)ccc4F)cc3)c12 [UNC10112792A]
2. COc1cc2nccc(Nc3ccc(Oc4ccccc4)cc3)c2cc1OC.Cl [UNC10225483A]
3. NS(=O)(=O)CCc1cccc(Nc2nccc(-c3c(-c4cccc(NC(=O)c5c(F)cccc5F)c4)nn4ccccc34)n2)c1 [UNC10224988A]

Outgoing:
1. 84.72
2. 74.22
3. 106.43

###

Test system: SH-SY5Y cells
Quantity Measured: DQ Spot
Numbers only.

Below, 5 compounds whose answers are already recorded.
Compound	Quantitative Result
CCCC(=O)Nc1n[nH]c2ncccc12	109.95
CCCC(=O)Nc1n[nH]c2ncc(-c3cccc4ccccc34)cc12	107.10
C[C@@H](Oc1cc(-n2cnc3cc(-c4cnn(C)c4)ccc32)sc1C(N)=O)c1ccccc1Cl [UNC10225416A]	124.35
O=C1NC(=O)C(c2ccccc2)=C1Nc1cccc(O)c1 [UNC10225065A]	107.03
O=C1NC(=O)C(c2ccc(Cl)cc2)=C1Nc1cccc(Cl)c1 [UNC10225464A]	111.59

Dear reader, for each entry below, please note its DQ Spot.
1. CN(C)CC(O)COc1ccc(Nc2nccc(-c3cnn4nc(N5CCOCC5)ccc34)n2)cc1 (stereo not shown) [UNC10225197A]
2. Nc1n[nH]c2nnc(-c3ccccc3)cc12
3. CC(=O)Nc1n[nH]c2ncc(-c3ccccc3)cc12
4. COc1ccc(C2=C(Nc3cccc(C(=O)O)c3)C(=O)NC2=O)cc1 [UNC10225244A]
5. O=C(Nc1n[nH]c2nc(-c3ccc(O)cc3)ccc12)C1CC1
6. COc1cccc(-c2ccc3c(NC(=O)C4CC4)n[nH]c3n2)c1
7. COc1cccc(C2=C(Nc3ccc(Cl)c(C(=O)O)c3)C(=O)NC2=O)c1 [UNC10225038A]

Outgoing:
1: 110.97; 2: 127.72; 3: 101.49; 4: 82.38; 5: 130.75; 6: 92.88; 7: 110.06

###

I'd appreciate it if you could supply DQ Spot values for the items below.
Tested on: SH-SY5Y cells

Below, 2 compounds whose answers are already recorded.
Compound	DQ Spot
Nc1n[nH]c2ncc(-c3ccccc3)cc12	122.46
COc1cccc(C2=C(Nc3cc(Cl)c(O)c(Cl)c3)C(=O)NC2=O)c1 [UNC10225267A]	111.15

Dear reader, for each entry below, please note its DQ Spot.
1. O=C(Nc1n[nH]c2nc(-c3cccs3)c(Br)cc12)C1CCCC1
2. O=C(Nc1n[nH]c2nc(-c3ccccc3O)ccc12)C1CC1
3. O=C(Nc1n[nH]c2nc(-c3ccccc3)ccc12)C1CC1

Outgoing:
[104.54, 92.53, 111.17]

###

I'd appreciate it if you could supply TFE3 % values for the items below.
Test system: endogenous TFE3
Test Protocol: TFE3 nuclear translocation, immunocytochemistry high-content imaging
Assay type: cell-based
Details: PKIS2 primary screening
Give bare numbers, in %.

Dear reader, for each entry below, please note its TFE3 %.
1. Nc1ncnc2c1ncn2-c1cccc2ccccc12 [UNC10225410A]
2. COc1ccc(NC(=O)c2ccoc2)cc1-c1ccc(C(=O)NCC2CC2)cc1 [UNC10225046A]
3. COc1ccc(Nc2nccc(-c3cccc(NC(=O)c4cc5cc(F)ccc5[nH]4)c3)n2)cc1

Outgoing:
1. 8.71
2. 9.04
3. 14.29

###

I'd appreciate it if you could supply AK values for the items below.
Test system: SH-SY5Y cells
Test Protocol: AK (adenylate kinase) release ToxiLight cytotoxicity assay; further: reference of the scale not given here
Details: PKIS2 primary screening

Below, 4 compounds whose answers are already recorded.
Compound	AK
Nc1cccc(-c2ccc3c(N)n[nH]c3c2)n1 [GSK2192730]	126.21
c1ccc(Oc2ccc(Nc3ccnc4ccc(-c5ccccn5)cc34)cc2)cc1 [UNC10225215A]	106.19
Nc1nccc2scc(-c3ccc4c(c3)CCN4C(=O)Cc3cc(F)ccc3F)c12 [UNC10225494A]	74.58
Cc1csc(-c2nc(Nc3ccncc3)c3ccccc3n2)n1 [GW869640]	59.35

Dear reader, for each entry below, please note its AK.
1. COc1cc(Nc2ncc3c(C)nc(-c4cc5ccccc5[nH]4)n3n2)cc(OC)c1OC [UNC10225084A]
2. Cc1ccc(-c2cc(-c3c[nH]nc3-c3ccccn3)ccn2)cc1 [UNC10225125A]
3. NC(=O)c1cccc(Nc2nccc(Nc3ccc(Oc4c(Cl)cccc4Cl)c(Cl)c3)n2)c1 [GW659009]
4. COc1ccc(-c2nc3n(c2-c2ccncc2)CCC3)cc1 [UNC10225334B]
5. Nc1ncc(-c2ccc3nccc(-c4ccncc4)c3c2)cc1S(=O)(=O)N1CCOCC1 [UNC10225011A]
6. CC[C@@H]1CO[C@H](C(=O)Nc2ccccc2)CN1c1cc(-c2ccc3c(N)n[nH]c3c2)nc(NC)n1 [GSK2376236]
7. Cc1ccc(C(=O)Nc2ccc(Nc3ccnc4cc(-c5ccccn5)ccc34)cc2O)cc1.Cl [UNC10225182A]

Outgoing:
1: 112.96; 2: 116.20; 3: 74.50; 4: 75.67; 5: 92.69; 6: 114.69; 7: 82.72
